Can you tell me inhibition for the items I'm about to list?
- TEST_NAME: inhibition of PEG-3 promoter activity – cell-based, HeLa, luciferase luminescence, primary screen (AID 588405)
- CONDITION_NOTES: HeLa PEG-Prom luciferase reporter, overnight, at 20 µM, stronger effect = higher value
About 6,200 (1.7%) of roughly 360,000 compounds were called active. Shown is part of a subset that was picked to be rich in actives.
Answer in %, number only, no unit symbol.

The compound listed as `Cc1cc(Cl)nc(NC(=O)Nc2cccc(Cl)c2)n1` shows inhibition equal to -174

The compound listed as `COc1cccc2sc(N(CCCN(C)C)C(=O)C(c3ccccc3)c3ccccc3)nc12` shows inhibition equal to 99.4

The compound listed as `Cc1ccc(S(=O)(=O)CCC(=O)OCC(=O)N(C)Cc2ccccc2)cc1` shows inhibition equal to -2.43

The compound listed as `Cc1c(C(=O)Nc2cccc(Cl)c2)cn2c(nc3ccccc32)c1C#N` shows inhibition equal to 60.9

The compound listed as COc1ccccc1NC(=O)CC(NCCN(C)C)C(=O)O (stereo unspecified) shows inhibition equal to 6.79

The compound listed as `Cc1cccc2sc(N(CCCN(C)C)C(=O)CCS(=O)(=O)c3ccccc3)nc12` shows inhibition equal to 100
